In what follows, each item is paired with its Ki for rHIV protease (Human immunodeficiency virus type 1 group M subtype B).
The answer is to be given in µM; state only the numeric part.

Lab note: measured Ki of COC(=O)[C@@H](NC(=O)[C@@H](NC(=O)C(C)N1CCC(C(C)NC(=O)[C@H](C)N)=CC(Cc2ccccc2)C1)C(C)C)C(C)C (stereo partly drawn) was 0.6

Lab note: measured Ki of COC(=O)[C@@H](NC(=O)[C@@H](NC(=O)C(C)N1CCC(C(C)NC(=O)[C@H](C)N)=CC(Cc2ccccc2)C1=O)C(C)C)C(C)C (stereo partly drawn) was 100

Lab note: measured Ki of COC(=O)[C@@H](NC(=O)[C@@H](NC(=O)C(C)N1CCC(C(C)NC(=O)[C@@H](N)Cc2ccccc2)=CC(Cc2ccccc2)C1)C(C)C)C(C)C (stereo partly drawn) was 3.6
